- Tested On: T1, AAV8 (adeno-associated virus 8)
- T1 construct: also called adeno-associated virus serotype 8
- Assay Procedure: SPR, AAV amine-coupled to CM5 chip;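 also: nanobodies flowed as analyte at seven concentrations spanning 1–100 nM over immobilized AAV (500–800 RU), kinetic constants derived by fitting the binding curves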
pKd: −log10 of the molar value.
pKd values for the binders below.

{"Binder": "A4-090 (VHH) VHH: VQLQESGGGLVQPGGSLRLSCVASGSRFIINTMGWYRQAPGKQRELVATFTRGGNTNYAESVKGRFTISRDNGKSTVYLQMNSLRPEDTAVYYCHVDEVRESTWTTSNLWGQGTQVTVSS", "pKd": 7.84}
{"Binder": "A4-083 (VHH) VHH: VQLQESGGGLVQTGGSLKLSCAASGSRFSLNTMGWYRQAPRKQREFVAAVTRGGNTNYGDFVKGRFTISRDNAKNTVYLQMNSLRPEDTAVYYCHVDELRESSWTTSNLWGQGTQVTVSS", "pKd": 7.37}
{"Binder": "A4-085 (VHH) VHH: VQLQESGGGLVQPGGSLRLSCAASGSRFSLNTMGWYRQAPGKQREFVAAVTRGGNTNYGDFVKGRFTISRDNAKNTVYLQMNSLRPEDTAVYYCHVDELRESSWTTSNLWGQGTQVTVSS", "pKd": 6.97}
{"Binder": "A4-072 (VHH) VHH: VQLQESGGGLAQPGGSLRLSCAASGSSFVINTMGWYRQAPGKQREFVATVTRGGSTNYGEFVKGRFTISRDNAKNTVYLQMNSLRPEDTAVYYCHVDELRQSSWTTSNLWGQGTQVTVSS", "pKd": 7.57}
{"Binder": "A4-067 (VHH) VHH: VQLQESGGGLVQTGGSLRLSCAASGRAFSLNTMGWYRQAPGKWRELVATVTRGGSTNYAGSVKGRFTISRDNTKNTVYLQMNNLRPEDTAVYYCHVDEVRESSWTTSNLWGQGTQVTVSS", "pKd": 6.89}
{"Binder": "A4-079 (VHH) VHH: VQLQESGGGLVQPGGSLRLSCAASGTRFSINTMGWYRQAPGKQRELVANVTPAGSTNYADSVKGRFTISRDNAKNTVYLQMNSLRPEDTAVYYCHVDELRDSSWTTSNLWGQGTQVTVSS", "pKd": 5.79}
{"Binder": "A4-087 (VHH) VHH: VQLQESGGGLVQPGGSLRLSCAASGSRFSLNTMGWYRQAPGKQRELVAAVTRGGNTNYGDFVKGRFTISRDNAKNTVYLQMNSLRPEDTAVYYCHVDELRESSWTTSNLWGQGTQVTVSS", "pKd": 8.98}
{"Binder": "A4-078 (VHH) VHH: VQLQESGGGLVQPGGSLRLSCLASGTMFSLNTMGWYRQAPGKQRELVATVTRGGSTNYADFVKGRFTISRDNAKNTVYLQMNSLRPEDTAVYYCHVDEVRDSSWTTSNLWGQGTQVTVSS", "pKd": 7.21}
{"Binder": "A4-063 (VHH) VHH: VQLQESGGGLVQPGGSLRLSCAASGRRFTINTMGWYRRAPGKQRELVATITRGGSTNYAGSVKGRFTISRDNPKNTVYLQMNSLRPEDTAVYYCHIDEVRQSSWTTSNLWGQGTQVTVSS", "pKd": 6.36}
{"Binder": "A4-076 (VHH) VHH: VQLQESGGGLVHSGGSLRLSCAASGSMFSLNTMGWYRQAPGKQRELVATITRGGGTSYADSVKGRFTISRDNAKNTVYLQMNSLRPEDTAVYYCHVDELRQSSWTTSNLWGQGTQVTVSS", "pKd": 7.01}
{"Binder": "A4-055 (VHH) VHH: VQLQESGGGLVQPGGSLRLSCAASGSIFSINTMGWYRQAPGKQRELVAAVTRGGSTNYADSVKGRFTISRDNAKNTVYLQMNSLRPEDTAVYYCHVDEVRQSSWTTSNLWGQGTQVTVSS", "pKd": 8.65}
{"Binder": "A4-093 (VHH) VHH: VQLQESGGGLVQTGGSLRLSCAASGSIFIINTMGWYRQRAGKQRELVATVTRGGSTNYADSVKGRFTISRDNAKNTVYLQMNTLRPEDTAVYYCHVDELRQSSWTTSNLWGQGTQVTVSS", "pKd": 7.93}
{"Binder": "A4-097 (VHH) VHH: VQLQESGGGLVQPGGSLRLSCIASGSIFSANTMGWYRQAPGKQRELVATITRGGNTNYGDSVKGRFTISRDNAKNTVYLQMNTLRPEDTAVYYCHVDEIRESSWTTSNLWGQGTQVTVSS", "pKd": 7.91}
{"Binder": "A4-096 (VHH) VHH: VQLQESGGGLVQPGGSLRLSCIASGSSFSANTMGWYRQAPGKQRELVATITRGGNTNYGDSVKGRFTISRDNAKNTVYLQMNSLRPEDTAVYYCHIDEIRESTWTTSNLWGQGTQVTVSS", "pKd": 7.81}
{"Binder": "A4-053 (VHH) VHH: VQLQESGGGLVQPGGSLRLSCAASGSIFIINTMGWYRRAPGKQRELVAAVTRGGSTNYADSVKGRFTISRDNAKNTVYLQMNSLRPEDTAVYYCHVDEVRQSSWTTSNLWGQGTQVTVSS", "pKd": 7.80}

// provenance: patent US20260193326A1
